system: HEK-293 Cells; assay: cells; type: cell-based; conditions: Homo sapiens, HEK293; 72 h; value in brackets
pIC50: −log10 of the molar value.
REPORTED PROPERTY: pIC50

COMPOUND	REPORTED PROPERTY	QUANTITATIVE READOUT
COc1ccc2nc3cc(Cl)ccc3c(Nc3cc(CN4CCCC4)c(O)c(CN4CCCC4)c3)c2n1 [Pyronaridine]	pIC50	5.55
COc1ccc(C[C@H](N)C(=O)N[C@H]2[C@@H](O)[C@H](n3cnc4c(N(C)C)ncnc43)O[C@@H]2CO)cc1 [Puromycin]	pIC50	5.85

====

inhibition at 40 µM: recorded values
system: P. falciparum 3D7; experiment: antiplasmodial imaging assay, P. falciparum 3D7; format: cell-based, Plasmodium falciparum; conditions: Plasmodium falciparum, 3D7; 40 µM; 72 h; chloroquine sensitive strain; read-out: % Inhibition at 40 µM, P. falciparum 3D7

COMPOUND	inhibition at 40 µM
C[C@H]1[C@H](OC(=O)CCC(=O)O)O[C@@H]2O[C@@]3(C)CC[C@H]4[C@H](C)CC[C@@H]1[C@@]24OO3 [Artesunate]	99.6%
CCc1nc(N)nc(N)c1-c1ccc(Cl)cc1	98.7%
COc1ccc2nc3cc(Cl)ccc3c(Nc3cc(CN4CCCC4)c(O)c(CN4CCCC4)c3)c2n1	99.9%
COc1ccc(C[C@H](N)C(=O)N[C@H]2[C@@H](O)[C@H](n3cnc4c(N(C)C)ncnc43)O[C@@H]2CO)cc1	99%
C[C@H]1[C@@H](O)O[C@@H]2O[C@@]3(C)CC[C@H]4[C@H](C)CC[C@@H]1[C@@]24OO3 [Dihydroartemisinin]	99.9%
CC(C)C[C@@H]1NC(=O)[C@@H]2CCCN2C1=O	45.9%
